- Measurement target: SAE1 (Homo sapiens (Human), UniProt Q9UBE0+Q9UBT2)
- Sequence (Q9UBE0 whole entry): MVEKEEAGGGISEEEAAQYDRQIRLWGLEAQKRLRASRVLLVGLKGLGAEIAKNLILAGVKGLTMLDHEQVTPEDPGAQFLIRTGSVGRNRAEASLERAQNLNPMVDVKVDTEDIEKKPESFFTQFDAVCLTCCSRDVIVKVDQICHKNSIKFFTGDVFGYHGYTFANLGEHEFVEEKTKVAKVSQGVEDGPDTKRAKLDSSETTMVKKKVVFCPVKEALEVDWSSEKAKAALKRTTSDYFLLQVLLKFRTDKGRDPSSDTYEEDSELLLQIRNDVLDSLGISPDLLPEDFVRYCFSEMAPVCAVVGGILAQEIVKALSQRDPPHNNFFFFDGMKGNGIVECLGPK
- Sequence (Q9UBT2 whole entry): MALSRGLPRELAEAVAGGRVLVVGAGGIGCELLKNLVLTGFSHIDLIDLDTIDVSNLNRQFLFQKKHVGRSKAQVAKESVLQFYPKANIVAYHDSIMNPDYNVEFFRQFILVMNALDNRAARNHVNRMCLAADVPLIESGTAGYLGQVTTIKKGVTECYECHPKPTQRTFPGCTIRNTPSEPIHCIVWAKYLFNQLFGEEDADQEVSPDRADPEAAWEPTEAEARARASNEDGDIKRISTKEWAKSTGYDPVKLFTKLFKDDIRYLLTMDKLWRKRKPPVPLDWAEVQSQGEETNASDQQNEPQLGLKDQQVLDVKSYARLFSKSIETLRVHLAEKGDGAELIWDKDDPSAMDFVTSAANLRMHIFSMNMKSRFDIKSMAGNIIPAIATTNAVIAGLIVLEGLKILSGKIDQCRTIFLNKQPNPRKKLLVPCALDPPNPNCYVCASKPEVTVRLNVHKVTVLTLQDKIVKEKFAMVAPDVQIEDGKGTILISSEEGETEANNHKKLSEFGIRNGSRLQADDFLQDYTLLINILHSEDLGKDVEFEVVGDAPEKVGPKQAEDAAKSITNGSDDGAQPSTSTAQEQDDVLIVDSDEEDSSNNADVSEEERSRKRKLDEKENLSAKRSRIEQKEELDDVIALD
- Protocol text: SAE High Throughput Biochemical Assay (HTRF), 15 min preincubation
- Experimental conditions: read-out: 15 min preincubation HTRF IC50 (μM) Ave, SAE1 12.5 nM, ATP 100 μM
Property measured: IC50 (µM)
Give just the numeric value; µM need not be written.

Compound: CCn1cc(-c2ccccc2[C@@H]2CN(C(=O)/C=C/CNC(C)(C)CO)Cc3sc(C#N)cc32)c(C(F)(F)F)n1
Unit abbreviation: µM
IC50: 2.88

Compound: CCn1cc(-c2c(F)cccc2[C@@H]2CN(C(=O)/C=C/CNC(C)C)Cc3sc(C#N)cc32)c(C(F)(F)F)n1
Unit abbreviation: µM
IC50: 0.8

Compound: CCn1cc(-c2ccccc2[C@@H]2CN(C(=O)/C=C/[C@@H]3CCCCN3)Cc3sc(C#N)cc32)c(C(F)(F)F)n1
Unit abbreviation: µM
IC50: 1.95

Query :: Entry `CCn1cc(-c2c(F)cccc2[C@@H]2CN(C(=O)/C=C/[C@H](C)NC)Cc3sc(C#N)cc32)c(C(F)(F)F)n1` needs its IC50 filled in; supply it.
Result :: 1.13

Query :: State, in one line, measured IC50 of `CCn1cc(-c2ccccc2[C@@H]2CN(C(=O)/C=C/CNC3(C)COC3)Cc3sc(C#N)cc32)c(C(F)(F)F)n1`
Result :: 15.6

Query :: Answer with the recorded IC50 of `CCNC/C=C/C(=O)N1Cc2sc(C#N)cc2[C@H](c2ccccc2-c2cn(CC)nc2C(F)(F)F)C1` only.
Result :: 2.83

Query :: Look up IC50 of CCn1cc(-c2c(C3CN(C(=O)/C=C/CN(C)C)Cc4sc(C#N)cc43)ccc(O)c2F)c(C(F)(F)F)n1 (stereo not drawn) and report it.
Result :: 1.67

Query :: Read the entry `CCn1cc(-c2c(F)cccc2[C@@H]2CN(C(=O)/C=C/[C@@H]3C[C@H](F)CN3)Cc3sc(C#N)cc32)c(C(F)(F)F)n1` and write its reported IC50.
Result :: 0.12

Query :: Identify the reported IC50 for the following entry. `C=C(C(=O)N1Cc2sc(C#N)cc2[C@H](c2ccccc2-c2cn(CC)nc2C(F)(F)F)C1)C(F)(F)F`
Result :: 1.36

---

- Protocol text: Plasma protein binding, equilibrium dialysis, dog plasma
- Type: in vitro ADME
- Experimental conditions: 5 hours at 37° C., read-out: PPB % bound Dog (converted)
Property measured: fraction unbound at 5 h, 1 μM
Respond numerically, and do not add a unit to the figure.

Below: 4 compounds and their reported fraction unbound at 5 h, 1 μM.
Compound: CCn1cc(-c2c(F)cccc2[C@@H]2CN(C(=O)/C=C/CN(C)C)Cc3sc(C#N)c(C)c32)c(C(F)(F)F)n1 [Example 46]
Recorded number: 0.008
--
Compound: CCn1cc(-c2c(F)cccc2[C@@H]2CN(C(=O)/C=C/CNC)Cc3sc(C#N)c(C)c32)c(C(F)(F)F)n1 [Example 217]
Recorded number: 0.013
--
Compound: C=CC(=O)N1Cc2sc(C#N)c(C)c2[C@H](c2cccc(F)c2-c2cn(CC)nc2C(F)(F)F)C1 [Compound 222]
Recorded number: 0.001
--
Compound: CCn1cc(-c2c(F)cccc2[C@@H]2CN(C(=O)/C=C/CNC)Cc3sc(C#N)cc32)c(C(F)(F)F)n1 [Example 50]
Recorded number: 0.02

Query :: Assign fraction unbound at 5 h, 1 μM to the following record: CCn1cc(-c2c(F)cccc2[C@@H]2CN(C(=O)/C=C/CN(C)C)Cc3sc(C#N)cc32)c(C(F)(F)F)n1 [Example 215]
Result :: 0.02

---

- Protocol text: Solubility Evaluation
- Format: physicochemical
- Experimental conditions: kinetic from dmso stock; simulated intestinal fluid (FaSSIF, pH 6.5), 1% DMSO, 1 hour at RT; read-out: Solubilities SIF
Property measured: solubility at 1 h

Smiles data: C=CC(=O)N1Cc2sc(C#N)c(C)c2[C@H](c2cccc(F)c2-c2cn(CC)nc2C(F)(F)F)C1
solubility at 1 h: 29 µM

Query :: Give a short answer stating reported solubility at 1 h for `CCn1cc(-c2c(F)cccc2[C@@H]2CN(C(=O)/C=C/[C@@H]3CCCN3)Cc3sc(C#N)cc32)c(C(F)(F)F)n1` .
Result :: 70 µM

Query :: Identify measured solubility at 1 h associated with `CCn1cc(-c2c(F)cccc2[C@@H]2CN(C(=O)/C=C/CNC)Cc3sc(C#N)cc32)c(C(F)(F)F)n1`
Result :: 28 µM

Query :: Specify measured solubility at 1 h for `CCn1cc(-c2c(F)cccc2[C@@H]2CN(C(=O)/C=C/[C@H](C)NC)Cc3sc(C#N)cc32)c(C(F)(F)F)n1` .
Result :: 90 µM

Query :: Identify the reported solubility at 1 h for the following entry. `CCn1cc(-c2c(F)cccc2[C@@H]2CN(C(=O)/C=C/CN(C)C)Cc3sc(C#N)c(C)c32)c(C(F)(F)F)n1`
Result :: > 100 µM

---

- Measurement target: SAE1 (Homo sapiens (Human), UniProt Q9UBE0+Q9UBT2)
- Protocol text: SAE High Throughput Biochemical Assay (HTRF), 15 min preincubation
- Experimental conditions: read-out: 15 min preincubation HTRF IC50 (μM) Ave, SAE1 12.5 nM, ATP 100 μM
Property measured: log10(IC50) (log10 of the value in µM)
Scale: decimal log of IC50, IC50 in µM.

Compound: CCn1cc(-c2ccccc2[C@@H]2CN(C(=O)/C=C/CN3CCC(C)C3)Cc3sc(C#N)cc32)c(C(F)(F)F)n1 (stereo partly shown)
log10(IC50): 0.59
--
Compound: CCn1cc(-c2ccccc2[C@@H]2CN(C(=O)/C=C/[C@H]3CC(C)(C)CN3)Cc3sc(C#N)cc32)c(C(F)(F)F)n1
log10(IC50): 0.03
--
Compound: CN(C)C/C=C/C(=O)N1Cc2sc(C#N)cc2[C@H](c2ccccc2-c2cn(S(C)(=O)=O)nc2C(F)(F)F)C1
log10(IC50): 1.27

Query :: Report its log10(IC50) with SAE1 (Homo sapiens (Human), UniProt Q9UBE0+Q9UBT2) as the test system: CCn1cc(-c2ccccc2[C@@H]2CN(C(=O)/C=C/C(c3ccccc3)N(C)C)Cc3sc(C#N)cc32)c(C(F)(F)F)n1 (stereo partly shown)
Result :: 0.90

Query :: Under SAE1 (Homo sapiens (Human), UniProt Q9UBE0+Q9UBT2), report log10(IC50) for `CCn1cc(-c2ccccc2[C@@H]2CN(C(=O)/C=C/[C@@H]3CCC(C)(C)N3)Cc3sc(C#N)cc32)c(C(F)(F)F)n1`
Result :: 0.25

Query :: System SAE1 (Homo sapiens (Human), UniProt Q9UBE0+Q9UBT2). Read-out log10(IC50). Item CCn1cc(-c2cc(NC(C)=O)ccc2C2CN(C(=O)/C=C/CN(C)C)Cc3sc(C#N)cc32)c(C(F)(F)F)n1 (stereo not shown) . Report value.
Result :: 1.18

Query :: # lookup: SAE1 (Homo sapiens (Human), UniProt Q9UBE0+Q9UBT2) log10(IC50), key = `CN(C)C/C=C/C(=O)N1Cc2sc(C#N)cc2[C@H](c2ccccc2-c2cn(CCF)nc2C(F)(F)F)C1`
Result :: 0.39

Query :: Report log10(IC50) on SAE1 (Homo sapiens (Human), UniProt Q9UBE0+Q9UBT2) for this entry: `CCn1cc(-c2ccccc2[C@@H]2CN(C(=O)/C=C/[C@H](C)NC)Cc3sc(C#N)cc32)c(C(F)(F)F)n1`
Result :: 0.45

Query :: # return log10(IC50) for CCn1cc(-c2c(C3CN(C(=O)/C=C/CN(C)C)Cc4sc(C#N)cc43)ccc(F)c2Cl)c(C(F)(F)F)n1 (stereo not shown) , test system: SAE1 (Homo sapiens (Human), UniProt Q9UBE0+Q9UBT2)
Result :: 0.91

Query :: Give log10(IC50) for this entry on SAE1 (Homo sapiens (Human), UniProt Q9UBE0+Q9UBT2): `CCn1cc(-c2c(F)cc(F)cc2[C@@H]2CN(C(=O)/C=C/CN(C)C)Cc3sc(C#N)cc32)c(C(F)(F)F)n1`
Result :: 0.25

Query :: Fill in log10(IC50) for `CCn1cc(-c2ccccc2[C@@H]2CN(C(=O)/C=C/[C@@H]3C[C@@H](C)CN3)Cc3sc(C#N)cc32)c(C(F)(F)F)n1` tested with SAE1 (Homo sapiens (Human), UniProt Q9UBE0+Q9UBT2).
Result :: 0.08

Query :: GET log10(IC50) where system = SAE1 (Homo sapiens (Human), UniProt Q9UBE0+Q9UBT2) and item = `CCn1cc(-c2c(F)cccc2[C@@H]2CN(C(=O)/C=C/CNC34CC(C3)C4)Cc3sc(C#N)cc32)c(C(F)(F)F)n1`
Result :: 0.22

Query :: Report log10(IC50) under test system SAE1 (Homo sapiens (Human), UniProt Q9UBE0+Q9UBT2) for CCn1cc(-c2cc(NS(C)(=O)=O)ccc2C2CN(C(=O)/C=C/CN(C)C)Cc3sc(C#N)cc32)c(C(F)(F)F)n1 (stereo not shown) .
Result :: 0.96
